Provide the reported % Helix 50% TFE compared to 50% TFE parent (CD) of each item.
- Measurement Protocol: Circular dichroism (CD) analysis of alpha-helicity
- Assay type: physicochemical
- Condition Context: 50% TFE
Where a SMILES comes first, the peptide text is derived from it. Bridges are numbered along the chain shown (N, C = ends). [ ]: non-standard residue; d: D form. R8 = C=CCCCCCC[C@@](C)(N)C(=O)O; S5 = C=CCCC[C@](C)(N)C(=O)O
Express it in %; write the number only.

[in] Look up % Helix 50% TFE compared to 50% TFE parent (CD): CCCC[C@H](NC(=O)[C@H](C)NC(=O)[C@H](C)NC(=O)[C@]1(C)CCC/C=C/CCCCCC[C@@](C)(NC(=O)[C@H](Cc2ccccc2)NC(=O)[C@@H](NC(=O)[C@H](CC(C)C)NC(C)=O)[C@@H](C)O)C(=O)N[C@@H](C)C(=O)N[C@@H](Cc2ccc(O)cc2)C(=O)N[C@@H](Cc2c[nH]c3ccccc23)C(=O)N[C@@H](C)C(=O)N[C@@H](CCC(N)=O)C(=O)N[C@@H](CC(C)C)C(=O)N1)C(=O)N[C@@H](C)C(N)=O [compound 69]
[out] 148.2

[in] Look up % Helix 50% TFE compared to 50% TFE parent (CD): CC[C@H](C)[C@H](NC(=O)[C@H](C)NC(=O)[C@H](C)NC(=O)[C@]1(C)CCC/C=C/CCCCCC[C@@](C)(NC(=O)[C@H](Cc2ccccc2)NC(=O)[C@@H](NC(=O)[C@H](CC(C)C)NC(C)=O)[C@@H](C)O)C(=O)N[C@@H](C)C(=O)N[C@@H](Cc2ccc(O)cc2)C(=O)N[C@@H](Cc2c[nH]c3ccccc23)C(=O)N[C@@H](C)C(=O)N[C@@H](CCC(N)=O)C(=O)N[C@@H](CC(C)C)C(=O)N1)C(=O)N[C@H](C)C(N)=O [compound 71]
[out] 123.7

[in] Look up % Helix 50% TFE compared to 50% TFE parent (CD): CC(=O)N[C@@H](CC(C)C)C(=O)N[C@H](C(=O)N[C@@H](Cc1ccccc1)C(=O)N[C@]1(C)CCCCCCC=CCCC[C@@](C)(C(=O)N[C@@H](Cc2c[nH]cn2)C(=O)N[C@@H](Cc2c[nH]cn2)C(=O)N[C@@H](CC(C)C)C(=O)N[C@H](C)C(N)=O)NC(=O)[C@H](CC(C)C)NC(=O)[C@H](CCC(N)=O)NC(=O)[C@H](C)NC(=O)[C@H](Cc2c[nH]c3ccccc23)NC(=O)[C@H](Cc2ccc(O)cc2)NC(=O)[C@H](C)NC1=O)[C@@H](C)O [compound 43] (Ac-LTF[R8]AYWAQL[S5]HHL[dA]-NH2; staple 4-11)
[out] 116.4

[in] Look up % Helix 50% TFE compared to 50% TFE parent (CD): CC(=O)N[C@@H](CC(C)C)C(=O)N[C@H](C(=O)N[C@@H](Cc1ccccc1)C(=O)N[C@]1(C)CCCCCCC=CCCC[C@@](C)(C(=O)N[C@@H](CO)C(=O)N[C@@H](C)C(=O)N[C@@H](Cc2ccccc2)C(N)=O)NC(=O)[C@H](CC(C)C)NC(=O)[C@H](CCC(N)=O)NC(=O)[C@H](C)NC(=O)[C@H](Cc2c[nH]c3ccccc23)NC(=O)[C@H](Cc2ccc(O)cc2)NC(=O)[C@H](C)NC1=O)[C@@H](C)O [compound 7] (Ac-LTF[R8]AYWAQL[S5]SAF-NH2; staple 4-11)
[out] 137.3

[in] Look up % Helix 50% TFE compared to 50% TFE parent (CD): CC(=O)N[C@@H](CC(C)C)C(=O)N[C@H](C(=O)N[C@@H](Cc1ccccc1)C(=O)N[C@]1(C)CCCCCCC=CCCC[C@@](C)(C(=O)N[C@@H](CO)C(=O)N[C@@H](C)C(=O)N[C@@H](C)C(N)=O)NC(=O)[C@H](CC(C)C)NC(=O)[C@H](CCC(N)=O)NC(=O)[C@H](C)NC(=O)[C@H](Cc2c[nH]c3ccccc23)NC(=O)[C@H](Cc2ccc(O)cc2)NC(=O)[C@H](C)NC1=O)[C@@H](C)O [compound 11]
[out] 106.1

* * *

- Assay Target: MDMX (Homo sapiens)
- Measurement Protocol: Competitive fluorescence polarization assay for MDMX
- Type: binding
- Condition Context: competitive FP assay, read-out: Ki (MDMX)
pKi: −log10 of the molar value. Where a SMILES comes first, the peptide text is derived from it. Bridges are numbered along the chain shown (N, C = ends). [ ]: non-standard residue; d: D form. R8 = C=CCCCCCC[C@@](C)(N)C(=O)O; S5 = C=CCCC[C@](C)(N)C(=O)O
Provide the reported pKi of each item.

[in] Look up pKi: CC(=O)N[C@@H](CC(C)C)C(=O)N[C@H](C(=O)N[C@@H](Cc1ccccc1)C(=O)N[C@]1(C)CCCCCCC=CCCC[C@@](C)(C(=O)N[C@@H](CO)C(=O)N[C@@H](C)C(=O)N[C@@H](Cc2ccccc2)C(N)=O)NC(=O)[C@H](CC(C)C)NC(=O)[C@H](CCC(N)=O)NC(=O)[C@H](C)NC(=O)[C@H](Cc2c[nH]c3ccccc23)NC(=O)[C@H](Cc2ccc(O)cc2)NC(=O)[C@H](C)NC1=O)[C@@H](C)O [compound 7] (Ac-LTF[R8]AYWAQL[S5]SAF-NH2; staple 4-11)
[out] 7.00 to 8.00

[in] Look up pKi: CC(=O)N[C@@H](CC(C)C)C(=O)N[C@H](C(=O)N[C@@H](Cc1ccccc1)C(=O)N[C@]1(C)CCCCCCC=CCCC[C@@](C)(C(=O)N[C@@H](C)C(=O)N[C@@H](C)C(=O)N[C@@H](C)C(=O)N[C@H](C)C(N)=O)NC(=O)[C@H](CC(C)C)NC(=O)[C@H](CCC(N)=O)NC(=O)[C@H](C)NC(=O)[C@H](Cc2c[nH]c3ccccc23)NC(=O)[C@H](Cc2ccc(O)cc2)NC(=O)[C@H](CCC(=O)O)NC1=O)[C@@H](C)O [compound 586] (Ac-LTF[R8]EYWAQL[S5]AAA[dA]-NH2; staple 4-11)
[out] 7.00 to 8.00

* * *

Provide the reported pIC50 of each item.
- Assay Target: UniProt:Q00987
- Sequence (Q00987 1-125): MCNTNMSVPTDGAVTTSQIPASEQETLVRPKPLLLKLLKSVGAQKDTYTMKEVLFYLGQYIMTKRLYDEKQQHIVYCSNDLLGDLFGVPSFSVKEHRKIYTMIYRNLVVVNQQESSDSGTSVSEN
- Measurement Protocol: Competitive fluorescence polarization assay for MDM2
- Type: binding
- Condition Context: competitive FP assay, MDM2; read-out: IC50 (MDM2)
pIC50: −log10 of the molar value. Where a SMILES comes first, the peptide text is derived from it. Bridges are numbered along the chain shown (N, C = ends). [ ]: non-standard residue; d: D form. R8 = C=CCCCCCC[C@@](C)(N)C(=O)O; Cba = N[C@@H](CC1CCC1)C(=O)O; S5 = C=CCCC[C@](C)(N)C(=O)O; Nle = CCCC[C@H](N)C(=O)O

[in] Look up pIC50: CC(=O)N[C@@H](C)C(=O)N[C@@H](CC(C)C)C(=O)N[C@H](C(=O)N[C@@H](Cc1ccccc1)C(=O)N[C@]1(C)CCCCCCC=CCCC[C@@](C)(C(=O)N[C@@H](CO)C(=O)N[C@@H](C)C(=O)N[C@@H](C)C(N)=O)NC(=O)[C@H](CC2CCC2)NC(=O)[C@H](CCC(N)=O)NC(=O)[C@H](C)NC(=O)[C@H](Cc2c[nH]c3ccccc23)NC(=O)[C@H](Cc2ccc(O)cc2)NC(=O)[C@H](CCC(=O)O)NC1=O)[C@@H](C)O (single isomer, unassigned)
[out] 7.00 to 8.00

[in] Look up pIC50: CCCC[C@H](NC(=O)[C@H](C)NC(=O)[C@H](C)NC(=O)[C@]1(C)CCCC=CCCCCCC[C@@](C)(NC(=O)[C@H](Cc2ccccc2)NC(=O)[C@@H](NC(=O)[C@H](CCC(=O)O)NC(C)=O)[C@@H](C)O)C(=O)N[C@@H](C)C(=O)N[C@@H](Cc2ccc(O)cc2)C(=O)N[C@@H](Cc2c[nH]c3ccccc23)C(=O)N[C@@H](C)C(=O)N[C@@H](CCC(N)=O)C(=O)N[C@@H](CC2CCC2)C(=O)N1)C(=O)N[C@@H](C)C(N)=O [compound 237] (Ac-ETF[R8]AYWAQ[Cba][S5]AA[Nle]A-NH2; staple 4-11)
[out] 7.00 to 8.00

* * *

Provide the reported IC50 of each item.
- Assay Target: MDMX (Homo sapiens)
- Sequence (O15151 1-125): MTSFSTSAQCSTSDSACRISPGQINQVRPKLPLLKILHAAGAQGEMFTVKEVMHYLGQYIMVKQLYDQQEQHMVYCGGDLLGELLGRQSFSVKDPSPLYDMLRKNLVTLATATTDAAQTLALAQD
- Measurement Protocol: Competitive fluorescence polarization assay for MDMX
- Assay type: binding
- Condition Context: competitive FP assay, read-out: IC50 (MDMX)
Where a SMILES comes first, the peptide text is derived from it. Bridges are numbered along the chain shown (N, C = ends). [ ]: non-standard residue; d: D form. Trp(6-Cl) = N[C@@H](Cc1c[nH]c2cc(Cl)ccc12)C(=O)O; R8 = C=CCCCCCC[C@@](C)(N)C(=O)O; Cba = N[C@@H](CC1CCC1)C(=O)O; S5 = C=CCCC[C@](C)(N)C(=O)O

[in] Look up IC50: CC(=O)N[C@@H](CC(C)C)C(=O)N[C@H](C(=O)N[C@@H](Cc1ccccc1)C(=O)N[C@]1(C)CCCCCCC=CCCC[C@@](C)(C(=O)N[C@@H](CO)C(=O)N[C@@H](C)C(=O)N[C@@H](Cc2ccccc2)C(N)=O)NC(=O)[C@H](CC2CCC2)NC(=O)[C@H](CCC(N)=O)NC(=O)[C@H](C)NC(=O)[C@H](Cc2c[nH]c3cc(Cl)ccc23)NC(=O)[C@H](Cc2ccc(O)cc2)NC(=O)[C@H](CCC(=O)O)NC1=O)[C@@H](C)O [compound 261] (Ac-LTF[R8]EY[Trp(6-Cl)]AQ[Cba][S5]SAF-NH2; staple 4-11)
[out] 100 to 1000 nM

[in] Look up IC50: CC[C@H](C)[C@H](NC(=O)[C@H](C)NC(=O)[C@H](C)NC(=O)[C@]1(C)CCCC=CCCCCCC[C@@](C)(NC(=O)[C@H](Cc2ccccc2)NC(=O)[C@@H](NC(=O)[C@H](CC(C)C)NC(C)=O)[C@@H](C)O)C(=O)N[C@@H](C)C(=O)N[C@@H](Cc2ccc(O)cc2)C(=O)N[C@@H](Cc2c[nH]c3ccccc23)C(=O)N[C@@H](C)C(=O)N[C@@H](CCC(N)=O)C(=O)N[C@@H](CC(C)C)C(=O)N1)C(=O)N[C@@H](C)C(N)=O (single isomer, unassigned)
[out] 100 to 1000 nM
